- Method Summary: growth inhibitors of yeast BB579 in restrictive medium, primary screen, yeast lifespan-shortening project, S. cerevisiae (AID 804)
- Particulars: OD615, 48 h, at 10 µM, hits give high values
Hit rate of the full screen: of about 140,000 compounds, about 710 (0.51%) were called active. The sample holds actives, similar compounds and a random draw of the others, so the mix is not that of the screen.
Readout: inhibition (%)
Expressed in %, but write only the number.

Here is how some molecules turned out for inhibition.
> print(dat)
                                   molecule  output.unit  test.value
1  O=C(Nc1cccc([N+](=O)[O-])c1)c1ccc2c(c1)OCO2            %       -10.3
2  N#C/C(=C/c1cccc([N+](=O)[O-])c1)c1nnc2n1CCCCC2            %       -18.8
3  C/C(=N/NC(=O)C1COc2ccccc2O1)c1ccco1 (stereo unspecified)            %       -32.3
4  CCOC(=O)NN1C(=O)c2ccccc2NC1c1ccccc1O (stereo unspecified)            %        7.28
5  O=C(Nc1ccc2ccccc2c1)/C(=C/c1cccc(Br)c1)NC(=O)c1ccco1            %       -32.8

Reported inhibition for `Nc1nc(NC(=O)/C=C/c2ccccc2)nn1-c1ccccc1` was -11.2

* * *

- Method Summary: growth inhibitors of yeast BB579 in restrictive medium, primary screen, yeast lifespan-shortening project, S. cerevisiae (AID 804)
- Particulars: OD615, 48 h, at 10 µM
About 710 (0.51%) of roughly 140,000 compounds were called active.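 Rule for the calls: active = inhibition above a set limit, 3 SD over the mean compound inhibition (cut at about 44% in these data); inactive = the rest.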 The sample holds actives, similar compounds and a random draw of the others, so the mix is not that of the screen.
In this exercise, the only acceptable responses are yes (active), no (inactive)

See these solved cases before continuing.
> print(dat)
                                   compound  cat
1          Oc1ccc(Br)cc1C=Nc1ccc2[nH]ncc2c1   no
2  O=C(C1CCCO1)N1CCN(C(=S)Nc2cccc(Cl)c2)CC1 (stereo unspecified)   no
3             Cc1ccc2nc(S(=O)(=O)O)[nH]c2c1   no
4    Cc1ccc(-c2nn(C(C)(C)C)c3ncnc(N)c23)cc1  yes
5    Cn1c(=O)c(C(=O)Nc2ncccn2)c(O)c2ccccc21  yes

Ask | Lab log entry: `O=C(Cc1ccc(Cl)c(Cl)c1)Nc1ccc(SC(F)F)cc1` — outcome as called in the assay?
Reply | no

Ask | What is the recorded call for this compound in the test? CCN1CCN(C(c2cccnc2)c2cc(Cl)c3cccnc3c2O)CC1 (stereo unspecified)
Reply | no

Ask | For `O=C(Nc1nc(-c2ccc(-c3ccccc3)cc2)cs1)c1cnccn1` , which call appears in the assay record?
Reply | no

Ask | Please let me know the test result on file for `O=C(Nc1cccc(F)c1)c1coc(=O)c(Br)c1` .
Reply | no

Ask | Can you look up the reported call for `CCC(=O)/C=C1\Sc2ccccc2N1CC` for me?
Reply | no

* * *

- Method Summary: growth inhibitors of yeast BB579 in restrictive medium, primary screen, yeast lifespan-shortening project, S. cerevisiae (AID 804)
- Particulars: OD615, 48 h, at 10 µM
About 710 (0.51%) of roughly 140,000 compounds were called active.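 How the source made its calls: active means inhibition above a set limit, 3 SD over the mean compound inhibition (cut at about 44% in these data); inactive means the rest.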 Only a selection was taken, and actives are over-represented in it overall.
Form entry, call: pick from y = active, n = inactive

> print(dat)
                                   molecule  cat
1  O=C(NC(Nc1nc2ccc([N+](=O)[O-])cc2s1)(C(F)(F)F)C(F)(F)F)c1ccccc1    y
2          COc1ccc(C(=O)C[n+]2ccc(C)cc2)cc1    n
3       C=C1c2cc(CC)ccc2NC(=O)N1c1ccc(C)cc1    n
4  Cn1c(SCC(=O)Nc2cccc(O)c2)nnc1-c1ccc(S(=O)(=O)N2CCOCC2)cc1    n
5  O=C1c2ccccc2NC(c2ccc(-c3cccc(Cl)c3)o2)N1O (centres undefined)    y
6  O=C(COC(=O)CSc1nnc(-c2ccc(Cl)cc2)o1)Nc1cc(Cl)cc(Cl)c1    n

Ask | Call for entry COc1cccc(/C=N\NC(=O)C2=NNC(=O)C2C)c1O (centres undefined) :
Reply | n

Ask | Which outcome did this test record for the molecule `COc1ccccc1CN(C)C(=O)C1(c2ccc(Cl)cc2)CC1` ?
Reply | n

Ask | Could you kindly confirm the outcome this assay logged for Cc1cccc(NC(=S)N(CCN(C)C)C(C)c2ccco2)c1 (centres undefined) ?
Reply | n

* * *

- Method Summary: growth inhibitors of yeast BB579 in restrictive medium, primary screen, yeast lifespan-shortening project, S. cerevisiae (AID 804)
- Particulars: OD615, 48 h, at 10 µM, hits give high values
The campaign covered roughly 140,000 compounds. About 710 (0.51%) were called active. Shown is part of a subset that was picked to be rich in actives.
Each entry below carries its recorded inhibition.

inhibition reading for `Cc1cccc(OCC(=O)NC(=S)Nc2ccccc2N2CCOCC2)c1` : -49.4% (inactive)

Documented inhibition of `CC1=C[C@H]2Cc3cc(C)cc(C)c3S(=O)(=O)[C@@H]2C=C1` : -12.4% (inactive)

inhibition reading for `COc1ccc(C(=O)/C=C/c2ccc(OC3CSC3)cc2)cc1` : -16.1% (inactive)

Record `Cc1ccc(CNC(=O)Cn2c(=O)c3sccc3n(Cc3cccc([N+](=O)[O-])c3)c2=O)cc1` . Reported inhibition: -44.2% (inactive)

So, `Cc1c(C=O)c2ccccn2c1C(=O)c1ccncc1` ? Its inhibition was 43.9% (active)

* * *

- Method Summary: growth inhibitors of yeast BB579 in restrictive medium, primary screen, yeast lifespan-shortening project, S. cerevisiae (AID 804)
- Particulars: OD615, 48 h, at 10 µM, hits give high values
In all, about 140,000 compounds went through this assay and about 710 (0.51%) were called active. Shown is part of a subset that was picked to be rich in actives.
Param threshold (-20%) applies to inhibition; output condition met when value >= threshold, condition not met when value < threshold.

> print(dat)
                                   compound                cat
1    NC(N)=N/N=C/c1ccc(OCc2ccc(Cl)cc2Cl)cc1      condition met
2  O=C1c2cccc3cc(Br)cc(c23)C(=O)N1Nc1ccccc1  condition not met

Ask | Assess whether reported inhibition for `COC(=O)c1sc2ncccc2c1OCc1ccc(Cl)cc1Cl` sits at -20% or higher.
Reply | condition not met

Ask | Could you verify whether the entry OC(CNCC1CCCO1)Cn1c2ccc(Br)cc2c2cc(Br)ccc21 (configuration not stated) shows inhibition of no less than -20%?
Reply | condition met

Ask | Is the recorded value of inhibition equal to or greater than -20% for this compound? `N/C(=N\OC(=O)CC1CCCCC1)c1ccccc1`
Reply | condition met

Ask | Identify whether the reported inhibition of the following compound is -20% or greater: `O=C(Nc1ccccc1)OCc1cc(-c2ccc(Cl)cc2)on1`
Reply | condition not met

Ask | Is it the case that `CC(C)n1c(O)c(N=Nc2ccccn2)c2ccccc21` has inhibition reaching or exceeding -20%?
Reply | condition met

Ask | Check the entry `O=C(Cc1c[nH]c2ccccc12)N/N=C/c1cccc(F)c1` : does inhibition equal or exceed -20%?
Reply | condition not met

Ask | For this compound, is measured inhibition -20% or higher? `COc1ccc(C(=O)O/N=C(\N)Cc2ccc(Cl)cc2Cl)cc1OC`
Reply | condition not met

Ask | I'd appreciate it if you could say whether CCc1ccc(NC(=O)CC2C(=O)NCCN2C(=S)Nc2ccccc2)cc1 (configuration not stated) has inhibition at least equal to -20%.
Reply | condition not met

Ask | Check if inhibition >= -20% (inclusive). Item: `CCOC(=O)c1cnc(-n2nc(C)cc2C)nc1NNc1cc(C)nc(-c2ccccc2)n1`
Reply | condition met

Ask | For this compound, is measured inhibition -20% or higher? `Cc1c(Cl)cnc(NC(=O)COC(=O)c2ccc(S(=O)(=O)NCc3ccco3)cc2)c1Cl`
Reply | condition met

Ask | Say whether `CCOC(=O)c1nn(-c2ccccc2F)c2nc(Nc3ccccc3)cc(=O)n12` shows inhibition of -20% or more.
Reply | condition not met

Ask | I'd appreciate it if you could say whether `COc1ccccc1CNC(=O)CN1CCC(n2cnc3cc(F)ccc32)CC1` has inhibition at least equal to -20%.
Reply | condition not met

Ask | I'd appreciate it if you could say whether `CCc1ccc2c(c1)C(c1ccc([N+](=O)[O-])cc1)=NNC(c1ccccc1)=N2` has inhibition at least equal to -20%.
Reply | condition not met

Ask | inhibition >= -20% for Cc1cc(Br)ccc1NC(=O)C1CCCO1 (configuration not stated) ?
Reply | condition not met

Ask | Does the compound `CCN=C1S/C(=C\c2cc(Br)ccc2OCC(=O)OCC)C(=O)N1CC` have recorded inhibition that is -20% or more?
Reply | condition met

Ask | Determine whether measured inhibition meets or exceeds -20% for CCC(NC(=O)c1ccccc1NC(=O)c1ccccc1)C(=O)NNC(=O)CSc1nc2ccccc2o1 (configuration not stated)
Reply | condition met

Ask | Please check the record `O=C(/C=C\c1ccc2c(c1)OCO2)NC1(C(=O)Nc2ccc3c(c2)OCCO3)CCCCC1` and state if its inhibition is at or above -20%.
Reply | condition met

Ask | Say whether `COc1cc(/C=C(/NC(=O)c2ccc(Cl)cc2Cl)C(=O)O)cc(OC)c1OC` shows inhibition of -20% or more.
Reply | condition met

Ask | Quick check, inhibition >= -20%? `COc1ccc(CCNC(=O)CSc2nc(-c3ccc(OC)c(OC)c3)ccc2C#N)cc1`
Reply | condition not met

Ask | Reported inhibition at or above -20%? `CCCc1cc(-c2nc(-c3ccc(C)cc3)cs2)ccn1`
Reply | condition met
